Target: Human autotaxin enzyme (Homo sapiens, UniProt Q13822)
Construct: purchased R&D System
Experiment: Evaluation of autotaxin inhibitor, 18:0 Lyso PC / choline assay (Test Example 2)
Type: biochemical
Settings: human autotaxin enzyme, 18:0 Lyso PC substrate, choline assay, room temperature 2 hours; read-out: Inhibitor activity (IC50)
Experimental: Solution B containing 100 mM Tris-HCl buffer (pH7.5), 150 mM NaCl, 5 mM MgCl2, and 0.05% Triton X-100 was prepared. Human autotaxin enzyme (purchased from R&D System) was diluted with Solution B, and 2.5 μl of which was added to a solution of test compound in DMSO. […] The fluorescent dye Resorufin, which was produced by the reaction, was detected. The fluorescence was detected using ViewLux (PerkinElmer, Inc.) with a excitation wavelength of 531 nm and a fluorescence wavelength of 598 nm. […]
Kindly state IC50 for each of the entries shown.

• O=C(Cn1c(CCCC(F)(F)F)nc(-c2ccc(C(F)(F)F)cc2)cc1=O)N1CCS(=O)(=O)CC1 [Compound I-0349] = 10 to 100 nM
• COC(=O)Nc1cc(Cl)ccc1-c1cc(=O)n(CC(=O)N(C)C2(C)COC2)c(C)n1 [Compound I-0274] = 10 to 100 nM
• CCCCCc1nc(-c2ccc(Cl)cc2)cc(=O)n1CC(=O)NC1CCS(=O)(=O)C1 (centres unmarked) [Compound I-0081] = 10 to 100 nM
• CCCCCc1nc(-c2ccc(Cl)cc2)cc(=O)n1CC(=O)N[C@@H]1CCN(C(C)=O)C1 [Compound I-0097] = 100 to 1000 nM
• CCS(=O)(=O)N1CCC(NC(=O)Cn2c(CCCC(F)(F)F)nc(-c3ccc(C(F)(F)F)cc3)cc2=O)CC1 [Compound I-0370] = 100 to 1000 nM

// for each molecule below, give its IC50
1. CCCCCc1nc(-c2ccc(Cl)cc2)cc(=O)n1CC(=O)NC1CCC(C(=O)O)CC1 (centres unmarked) [Compound I-0063]
2. CC1(O)CN(C(=O)Cn2c(CCCC(F)(F)F)nc(-c3ccc(Cl)cc3CO)cc2=O)C1 [Compound I-0315]
3. COC(=O)Nc1cc(Cl)ccc1-c1cc(=O)n(CC(=O)NC2(C(F)(F)F)CC2)c(C)n1 [Compound I-0455]
4. N#CC1(NC(=O)Cn2c(CCCC(F)(F)F)nc(-c3c(F)cc(Cl)cc3F)cc2=O)CC1 [Compound I-0234]
5. CCCCCc1nc(-c2ccc(Cl)cc2)cc(=O)n1CC(=O)NC1(c2cccnc2)CC1 [Compound I-0089]

Result:
1: < 10 nM; 2: ≥ 1000 nM; 3: 10 to 100 nM; 4: 10 to 100 nM; 5: 10 to 100 nM

// for each molecule below, give its IC50
1. O=C(O)c1nc(Cn2c(CCCC(F)(F)F)nc(-c3ccc(Cl)cc3)cc2=O)cs1 [Compound I-0294]
2. CC(C)(C)NC(=O)Cn1cnc(-c2ccc(Cl)cc2NC(=O)C(C)(C)C)cc1=O [Compound I-0407]
3. Cc1nc(-c2ccc(Cl)cc2NC(=O)C2CC2)cc(=O)n1CC(=O)NC1(C)COC1 [Compound I-0419]

Result:
1. 10 to 100 nM
2. 10 to 100 nM
3. 10 to 100 nM

###

Kindly state IC50 for each of the entries shown.
target: Human autotaxin enzyme (Homo sapiens); construct: purchased R&D System; assay: Evaluation of autotaxin inhibitor, 18:0 Lyso PC / choline assay (Test Example 2); type: biochemical; conditions: autotaxin inhibition, IC50 class; read-out: Inhibitor activity

// below: answered compounds
• O=C(O)Cn1c(CCCC(F)(F)F)nc(-c2ccc(C(F)(F)F)cc2)cc1=O [Compound I-0255] = ≥ 1000 nM
• CSc1nc(-c2ccc(Cl)cc2NC(C)=O)cc(=O)n1CC(=O)NC1(C#N)CC1 [Compound I-0243] = 10 to 100 nM
• CC(=O)Nc1cc(Cl)ccc1-c1cc(=O)n(CC(=O)OC(C)(C)C)cn1 [Compound I-0244] = 10 to 100 nM
• CC(=O)Nc1cc(Cl)ccc1-c1cc(=O)n(CC(=O)NC2(C#N)CC2)c(C)n1 [Compound I-0248] = 10 to 100 nM

So for CCc1nc(-c2ccc(Cl)cc2NC(C)=O)cc(=O)n1CC(=O)NC1(C#N)CC1 [Compound I-0256] , the logged IC50 turned out to be 10 to 100 nM
